- target: KRAS G12S (Homo sapiens, UniProt P01116+P62937, G12S)
- Sequence (P01116 1-169 isoform P01116-2 G12S limits assumed): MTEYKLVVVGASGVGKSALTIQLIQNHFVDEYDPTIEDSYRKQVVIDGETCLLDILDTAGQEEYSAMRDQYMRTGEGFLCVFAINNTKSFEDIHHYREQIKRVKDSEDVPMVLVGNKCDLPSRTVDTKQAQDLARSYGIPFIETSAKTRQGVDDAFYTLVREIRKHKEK
- Sequence (P62937 whole entry): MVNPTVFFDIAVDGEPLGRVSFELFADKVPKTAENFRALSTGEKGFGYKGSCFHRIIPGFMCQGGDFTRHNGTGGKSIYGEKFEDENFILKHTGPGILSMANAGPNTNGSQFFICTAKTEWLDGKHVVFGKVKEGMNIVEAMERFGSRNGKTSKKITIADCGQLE
- assay protocol: Ras-Raf disruption / FRET / MOA assay (BRAF RBD)
- Format: biochemical
- condition description: Ras-Raf disruption, with Cyclophilin A; read-out: KRAS G12S FRET data IC50
pIC50: −log10 of the molar value.
Measured pIC50 accompanies every entry in the list below.

See these solved cases before continuing.
molecule	pIC50
CCn1c(-c2cccnc2[C@H](C)OC)c2c3cc(ccc31)-c1cc(O)cc(c1)C[C@H](NC(=O)[C@H](C(C)C)N(C)C(=O)[C@@H]1CCN(C(=O)[C@H]3CN3)[C@@H]1C)C(=O)N1CCC[C@H](N1)C(=O)OCC(C)(C)C2 (atropisomer, axis not shown)	7.00 to 8.00
CCn1c(-c2cccnc2[C@H](C)OC)c2c3cc(ccc31)-c1cc(O)cc(c1)C[C@H](NC(=O)[C@H](C(C)C)N1CCC3(CCN(C(=O)[C@@H]4CN4)C3)C1=O)C(=O)N1CCC[C@H](N1)C(=O)OCC(C)(C)C2 (some centres unmarked)	7.00 to 8.00
CCn1c(-c2cccnc2[C@H](C)OC)c2c3cc(ccc31)-c1cccc(c1)C[C@H](NC(=O)[C@H](C(C)C)N(C)C(=O)[C@H]1C[C@H](N=C=Nc3c(C)cccc3C)C1)C(=O)N1CCC[C@H](N1)C(=O)OCC(C)(C)C2	6.00 to 7.00
CCn1c(-c2cccnc2[C@H](C)OC)c2c3cc(ccc31)-c1cccc(c1)C[C@H](NC(=O)[C@H](C(C)C)N(C)C(=O)[C@H]1CC[C@H](N=C=NCc3ccccc3OC)C1)C(=O)N1CCC[C@H](N1)C(=O)OCC(C)(C)C2	< 5.00
CCn1c(-c2cccnc2[C@H](C)OC)c2c3cc(ccc31)-c1cc(O)cc(c1)C[C@H](NC(=O)[C@H](C(C)C)N(C)C(=O)N1C[C@@H]3[C@H]1CCN3C(=O)[C@H]1CN1)C(=O)N1CCC[C@H](N1)C(=O)OCC(C)(C)C2 (atropisomer, axis not shown)	6.00 to 7.00

Q: What pIC50 appears in the records for this molecule with KRAS G12S (Homo sapiens, UniProt P01116+P62937, G12S)? CCn1c(-c2cccnc2[C@H](C)OC)c2c3cc(ccc31)-c1csc(n1)C[C@H](NC(=O)[C@H](C(C)C)N(C)C(=O)N(C)CCN(C)C(=O)[C@H]1CN1)C(=O)N1CCC[C@H](N1)C(=O)OCC(C)(C)C2 (atropisomer, axis not shown)
Ans: 6.00 to 7.00

Q: Lab note: need pIC50 with KRAS G12S (Homo sapiens, UniProt P01116+P62937, G12S) for entry CCn1c(-c2cccnc2[C@H](C)OC)c2c3cc(ccc31)-c1csc(n1)C[C@H](NC(=O)[C@H](C(C)C)N(C)C(=O)N1CC(CN(C)C(=O)[C@H]3CN3)C1)C(=O)N1CCC[C@H](N1)C(=O)OCC(C)(C)C2 (atropisomer, axis not shown) , please look it up.
Ans: 6.00 to 7.00

Q: Find the measured pIC50: item CCn1c(-c2cccnc2[C@H](C)OC)c2c3cc(ccc31)-c1cc(O)cc(c1)C[C@H](NC(=O)[C@H](C(C)C)N1CC[C@]3(CCN(C(=O)[C@@H]4N[C@@H]4C4CC4)C3)C1=O)C(=O)N1CCC[C@H](N1)C(=O)OCC(C)(C)C2 , target or system KRAS G12S (Homo sapiens, UniProt P01116+P62937, G12S).
Ans: 7.00 to 8.00

Each recorded value in this set is attributed to patent US20230233569A1.
